# assay_overview: chemical genetic growth profiling, strain panel (AID 1159580);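 note: tested at 20 µM; growth read once vehicle control cultures reached saturation at 30 °C; 1 = growth at the plate median or of vehicle wells; lower values mean less growth of the strain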
# conditions: S. cerevisiae deletion strains, growth OD, locus YJL154C, strain vps35, hits give low values
In all, about 5,500 compounds went through this assay and about 2,000 (36%) were called active. Inconclusive results (about 18%) are left out. Some of the results follow.
measure: normalized growth
Keep the answer to the number alone.

compound	normalized growth
C[C@H]1COc2c(N3CCN(C)CC3)c(F)cc3c(=O)c(C(=O)O)cn1c23	1.01
COC(=O)/C=C/C(C)=C/C=C/C(C)=C/C=C/C=C(C)/C=C/C=C(C)/C=C/C(=O)O	1.01
O=S(=O)(O)c1cc(N=C=S)ccc1/C=C/c1ccc(N=C=S)cc1S(=O)(=O)O	1.02
COc1cc2nc(N(C)CCCNC(=O)C3CCCO3)nc(N)c2cc1OC (stereo unspecified)	0.993
Cc1ccccc1C(OCCN(C)C)c1ccccc1 (stereo unspecified)	1
COC(=O)C[C@H]1C2(C)CC34OC5(C)O[C@@]6([C@H](OC)C(OC(=O)C(C)C)[C@]7(C)C(/C(=C(/OC)C(C)C)C(=O)O[C@H]7c7ccoc7)[C@@]6(O5)[C@H](OC)[C@@]3(OC)C2OC(C)=O)[C@]14C (stereo partly specified)	0.981
CC[C@@H]1C=C/C=C/C[C@H](C)[C@@H](O)[C@](C)(O)C(=O)[C@H](C)[C@@H](O)[C@H](C)C(=O)[C@H](C)[C@@H](O)[C@H](C)/C=C/C(=O)O[C@H]2[C@@H](C)[C@@H](CC1)O[C@@]1(CC[C@@H](C)[C@@H](C[C@H](C)O)O1)[C@@H]2C	1.01
CCCCCCCCCCC[C@@H](C[C@H]1OC(=O)[C@H]1CCCCCC)OC(=O)[C@@H](CC(C)C)NC=O	1.07

Briefly, normalized growth measured for Oc1cc(O)c2c(c1)O[C@H](c1ccc(O)c(O)c1)[C@H](O)C2 : 1.01

Briefly, normalized growth measured for CCC(C)C(=O)O[C@@H]1C[C@@]2(C)[C@H](c3ccoc3)OC(=O)CC23OC2(C)O[C@]14[C@]1(C)[C@@H](CC(=O)OC)C5(C)CC1(O)[C@](O)(C5OC(=O)C1(C)OC1C)[C@@H](OC(C)=O)[C@]34O2 (stereo partly specified) : 0.993

Briefly, normalized growth measured for CC(=O)Oc1cc(OC(C)=O)c2c(c1)O[C@H](c1ccc(OC(C)=O)c(OC(C)=O)c1)[C@@H](OC(C)=O)C2 : 0.997

Briefly, normalized growth measured for COc1ccc([C@H]2Oc3c(I)c(OC)cc(OC)c3C[C@@H]2O)cc1OC : 1.01

Briefly, normalized growth measured for CN(C)CCOC(c1ccc(Cl)cc1)c1ccccn1 (stereo unspecified) : 1.02

Briefly, normalized growth measured for N=c1ccn2c(n1)OC1C(O)C(CO)OC12 (stereo unspecified) : 1

Briefly, normalized growth measured for C#CCN(C)Cc1ccccc1 : 1.01

Briefly, normalized growth measured for Oc1cc(O)c2c(c1)O[C@H](c1cc(O)c(O)c(O)c1)[C@H](O)C2 : 1.02

====

# assay_overview: chemical genetic growth profiling, strain panel (AID 1159580)
# conditions: S. cerevisiae deletion strains, growth OD, locus YJL092W, strain hpr5, hits give low values
Screen size: about 5,500 compounds; about 2,000 (36%) were called active. Roughly 18% stayed inconclusive and do not appear here. Some of the results follow.
measure: normalized growth
Keep the answer to the number alone.

Briefly, normalized growth measured for CN1CCC(OC(c2ccccc2)c2ccccc2)CC1 : 0.98

Briefly, normalized growth measured for Clc1ccc(C(OCCN2CCCCC2)c2ccccc2)cc1 (stereo not given) : 1.02

====

# assay_overview: chemical genetic growth profiling, strain panel (AID 1159580)
# conditions: S. cerevisiae deletion strains, growth OD, locus YBR229C, strain ROT2, hits give low values
Hit rate of the full screen: of about 5,500 compounds, about 2,000 (36%) were called active. Another 18% or so got no clear call; they are omitted. The list shows a part of the results.
measure: normalized growth
Keep the answer to the number alone.

Briefly, normalized growth measured for O=C(OCC(O)CO)c1ccccc1Nc1ccnc2cc(Cl)ccc12 (stereo not given) : 0.994

Briefly, normalized growth measured for CCC(C)C(=O)O[C@@H]1C[C@@]2(C)[C@H](c3ccoc3)OC(=O)CC23OC2(C)OC34[C@H](OC(=O)C(C)C)[C@@]3(O)[C@@H](OC(=O)C5(C)OC5C)[C@@]5(C)C[C@]3(O)[C@@](C)([C@H]5CC(=O)OC)C14O2 (stereo not given in full) : 1.01

Briefly, normalized growth measured for CCC(C)C(=O)OC1CC2(C)C(c3ccoc3)OC(=O)CC23OC2(C)OC34C(OC(=O)C(C)C)C3(O)C(OC(=O)C5(C)OC5C)C5(C)CC3(O)C(C)(C5C(=O)OC)C14O2 (stereo not given) : 1

Briefly, normalized growth measured for COC(=O)C[C@H]1C2(C)CC34OC5(C)O[C@@]6([C@H](OC)C(OC(=O)C(C)C)[C@]7(C)C(/C(=C(/OC)C(C)C)C(=O)O[C@H]7c7ccoc7)[C@@]6(O5)[C@H](OC)[C@@]3(OC)C2OC(C)=O)[C@]14C (stereo not given in full) : 1.01

Briefly, normalized growth measured for COC(=O)CC1C2(C)CC34OC5(C)OC6(C7/C(=C(/O)C(C)C)C(=O)OC(c8ccoc8)C7(C)C(OC(=O)C(C)C)C(OC)C6(O5)C13C)C(OC)C4(OC)C2OC(C)=O (stereo not given) : 1

====

Quick reference for normalized growth among some molecules
# assay_overview: chemical genetic growth profiling, strain panel (AID 1159580);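 note: tested at 20 µM; growth read once vehicle control cultures reached saturation at 30 °C; 1 = growth at the plate median or of vehicle wells; lower values mean less growth of the strain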
# conditions: S. cerevisiae deletion strains, growth OD, locus YEL003W, strain gim4, hits give low values
Out of some 5,500 compounds screened, about 2,000 (36%) were called active. About 18% were inconclusive and are not listed. The list shows a part of the results.
Keep the answer to the number alone.

molecule	measured_number
CN1CCC(OC(c2ccccc2)c2ccccc2)CC1	0.956
C=CCc1ccc(OC)cc1	1.01
C=C[C@@](C)(O)CCC1C(=C)C[C@H](O)C2C(C)(C)CCCC12C (stereo partly specified)	1
C=C[C@@](C)(O)CCC1C(=C)C[C@H](OC(C)=O)C2C(C)(C)CCCC12C (stereo partly specified)	1.02
COc1ccc(C(=O)O)cc1OC	0.992

Briefly, normalized growth measured for CCCCC/C=C/CCC(=O)N[C@H]1[C@H](Oc2c3cc4cc2Oc2ccc(cc2Cl)[C@@H](O[C@@H]2O[C@H](CO)[C@@H](O)[C@H](O)[C@H]2NC(C)=O)[C@@H]2NC(=O)[C@H](NC(=O)[C@@H]4NC(=O)[C@H]4NC(=O)C(Cc5ccc(c(Cl)c5)O3)NC(=O)[C@H](N)c3ccc(O)c(c3)Oc3cc(O)cc4c3)c3ccc(O)c(c3)-c3c(OC4O[C@H](CO)[C@@H](O)[C@H](O)[C@@H]4O)cc(O)cc3[C@@H](C(=O)O)NC2=O)O[C@H](CO)[C@@H](O)[C@@H]1O (stereo partly specified) : 0.989

Briefly, normalized growth measured for CCCCCCCCCCC[C@@H](C[C@H]1OC(=O)[C@H]1CCCCCC)OC(=O)[C@@H](CC(C)C)NC=O : 1.02

Briefly, normalized growth measured for C=CCc1ccc(O)c(OC)c1 : 0.994

Briefly, normalized growth measured for O=C1NCC2(CCN(CCc3ccccc3)CC2)O1 : 0.99

Briefly, normalized growth measured for N[C@@H](Cc1ccc(N(CCCl)CCCl)cc1)C(=O)O : 0.996

Briefly, normalized growth measured for CCOC(=O)n1ccn(C)c1=S : 0.972

====

Quick reference for normalized growth among some compounds
# assay_overview: chemical genetic growth profiling, strain panel (AID 1159580);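 note: tested at 20 µM; growth read once vehicle control cultures reached saturation at 30 °C; 1 = growth at the plate median or of vehicle wells; lower values mean less growth of the strain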
# conditions: S. cerevisiae deletion strains, growth OD, locus YHR094C, strain hxt1, hits give low values
In all, about 5,500 compounds went through this assay and about 2,000 (36%) were called active. Roughly 18% stayed inconclusive and do not appear here. The list shows a part of the results.
Keep the answer to the number alone.

// below: answered compounds
compound	measure	measured_number
O=C1NCC2(CCN(CCc3ccccc3)CC2)O1	normalized growth	1
CCC(C)C(=O)O[C@@H]1C[C@@]2(C)[C@H](c3ccoc3)OC(=O)CC23OC2(C)OC34[C@H](OC(=O)C(C)C)[C@@]3(O)[C@@H](OC(=O)C5(C)OC5C)[C@@]5(C)C[C@]3(O)[C@@](C)([C@H]5CC(=O)OC)C14O2 (stereo partly specified)	normalized growth	1.01
CCCCNC(=O)NS(=O)(=O)c1ccc(C)cc1	normalized growth	0.979

# ---- query compound ----
Briefly, normalized growth measured for C=C[C@@](C)(O)CCC1C(=C)C[C@H](O)C2C(C)(C)CCCC12C (stereo partly specified) : 1.02

====

# assay_overview: chemical genetic growth profiling, strain panel (AID 1159580);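 note: tested at 20 µM; growth read once vehicle control cultures reached saturation at 30 °C; 1 = growth at the plate median or of vehicle wells; lower values mean less growth of the strain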
# conditions: S. cerevisiae deletion strains, growth OD, locus YLR418C, strain cdc73
Out of some 5,500 compounds screened, about 2,000 (36%) were called active. Another 18% or so got no clear call; they are omitted. Rule as the data show it: active = normalized growth mostly below about 0.91 (no sharp cut-off); inconclusive = no clear call, values can overlap the other calls; inactive = mostly above about 0.92. This is one part of the list.
Entry note: the call must match one of active, inactive

A selection of reference data follows.
compound	answer_label
CN(C)CCN(Cc1ccccc1)c1ccccn1	inactive
C=CCc1ccc(O)c(OC)c1	active
CC[C@@H](C(=O)C(C)[C@@H](O)[C@H](C)CCc1ccc(C)c(O)c1C(=O)O)C1OC(CC)(C2CC[C@](O)(CC)[C@H](C)O2)C[C@@H]1C (stereo partly specified)	inactive
COc1ccc2c(c1)OC/C(=C\c1ccc(OC)c(O)c1)C2=O	active
CN(C)CCOC(c1ccc(Cl)cc1)c1ccccn1 (stereo unspecified)	inactive

input: State the result this test recorded for CN1C2C[C@H](OC(=O)[C@H](CO)c3ccccc3)C[C@H]1[C@@H](O)C2 .
output: inactive

input: State the result this test recorded for Cc1[nH]c2ccccc2c1CN(C)C .
output: inactive

input: State the result this test recorded for COc1ccc(C(=O)CC(=O)O)c2c1C=CC(C)(C)O2 .
output: inactive

input: State the result this test recorded for O=C(O)c1cc2cc(F)ccc2[nH]1 .
output: inactive

input: State the result this test recorded for COc1ccc(OC)c(C(O)CNC(=O)CN)c1 (stereo unspecified) .
output: inactive

input: State the result this test recorded for CN1C2CCC1CC(OC(c1ccccc1)c1ccccc1)C2 (stereo unspecified) .
output: active

input: State the result this test recorded for Nc1nc(=S)c2[nH]cnc2[nH]1 .
output: inactive
